TARGET SYSTEM: T1, cynomolgus monkey PCSK9 (cynomolgus monkey, UniProt A8T662 31-692 (Macaca nemestrina entry), limits assumed)
T1 construct: also called Cyno PCSK9; cynoPCSK9
T1 sequence (A8T662 31-692 limits assumed): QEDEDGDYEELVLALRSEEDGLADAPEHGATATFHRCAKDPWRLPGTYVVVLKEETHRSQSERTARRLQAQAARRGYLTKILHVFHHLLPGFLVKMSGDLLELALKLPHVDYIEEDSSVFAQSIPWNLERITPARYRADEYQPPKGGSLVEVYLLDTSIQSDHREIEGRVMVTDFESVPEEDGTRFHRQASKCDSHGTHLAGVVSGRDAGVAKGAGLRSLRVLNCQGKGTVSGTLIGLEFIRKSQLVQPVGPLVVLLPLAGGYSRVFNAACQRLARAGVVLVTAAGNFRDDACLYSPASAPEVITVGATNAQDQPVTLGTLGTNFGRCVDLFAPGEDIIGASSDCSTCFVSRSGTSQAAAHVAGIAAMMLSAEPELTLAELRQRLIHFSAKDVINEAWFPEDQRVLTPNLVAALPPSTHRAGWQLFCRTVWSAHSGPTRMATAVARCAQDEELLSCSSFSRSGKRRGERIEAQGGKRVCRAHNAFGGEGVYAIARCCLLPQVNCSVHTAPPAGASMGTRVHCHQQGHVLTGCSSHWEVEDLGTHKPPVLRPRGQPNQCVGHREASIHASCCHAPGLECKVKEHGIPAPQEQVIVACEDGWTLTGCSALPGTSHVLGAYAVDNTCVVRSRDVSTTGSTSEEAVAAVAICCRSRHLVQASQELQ
EXPERIMENT SUMMARY: ProteOn SPR, captured antibody, pH 7.6;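 also: antibodies captured via anti-human Fc on a GLC sensor chip, PCSK9 binding sensorgrams fitted to a 1:1 Langmuir model giving on and off rates, with KD derived from them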
READOUT LABEL: koff (s⁻¹)

# BINDER, RECORDED VALUE
records = [
    ("CL-148219 (antibody, V domains shown, NLT motif in heavy chain framework 3 confirmed N-glycosylated by mass spectrometry, Human antibody, captured through anti-human Fc in the SPR assay) VH: QVHLQESGPGLVKPSETLSLTCTVSGGSISSYYWSWIRQYPGKGLEWIGYISYSGSSNYNPSLKRRVTISRDTSKNQFSLNLTSVIAADTAVYYCARNLMIRGAYGMDVWGQGTTVTVSS VL: DTVMTQSPLSLPVTPGEPASISCRSSQSLLHSNGYNYLDWYLQKAGQSPQLLIYLGSNRASGVPDRFSGSVSGTDFTLKISRVEAEDVGIYYCMQALQTPFTFGPGTKVDIK", 0.000284),
    ("CL-274698 (antibody, V domains shown, Human antibody with a kappa light chain, derived from a PCSK9 knockout mouse) VH: QVQLQESGPGLVKPSGTLSLTCAVSGGSISSSKWWSWVRQPPGKGLEWIGETHYSGSTNYNPSLKSRVTISVDKSKNQFSLKLRSVTAADTAVYYCARVGATENFWGQGTLVTVSS VL: EIVLTQSPATLSLSPGERATLSCRASQSVFRYLAWYQQKPGQAPRLLIYDASTRATDIPARFSGSGSGTDFTLTISSLEPEDFAVYYCQQRSNWPPTFGQGTKVEIK", 0.000108),
    ("CL-148219 QLT mutant (antibody, V domains shown) VH: QVHLQESGPGLVKPSETLSLTCTVSGGSISSYYWSWIRQYPGKGLEWIGYISYSGSSNYNPSLKRRVTISRDTSKNQFSLQLTSVIAADTAVYYCARNLMIRGAYGMDVWGQGTTVTVSS VL: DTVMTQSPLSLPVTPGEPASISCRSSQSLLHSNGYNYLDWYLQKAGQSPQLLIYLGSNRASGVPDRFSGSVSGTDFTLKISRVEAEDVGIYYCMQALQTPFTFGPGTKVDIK", 0.000256),
    ("CL-148489 (antibody, V domains shown, Human antibody with a kappa light chain) VH: EVQLVESGGGLVQPGRSLRLSCTASGFTFADYVMHWVRQTPGKGLEWVSGISWNSYSINYADSVKGRFTISRDNAQNSLYLQMNSLRAEDTALYFCAKDITYDLLTGYNYNYGLDVWGQGTTVTVSS VL: DIVMTQTPLSLSVTPGQPASISCRSSQSLLHSDGKTYLYWYLQKPGQPPQLLIYEVSNRFSGVPDRFSGSGSGTDFTLKISRVEAEDVGLYYCMQSIQLPLTFGGGTKVEIK", "5.73e-05"),
]
